Source: patent US20130158238A1

Assign FACS M2-HK MFI to each entry below.
# tgt: M2 protein of A/Hong Kong/483/1997, on cells (Influenza A virus A/Hong Kong/483/97 (H5N1))
# testProtocol: FACS, supernatant on CHO cells stably expressing M2 of A/Hong Kong/483/97
# output: number + unit

3244_I10 (antibody, V domains shown) VH: QVQLQESGPGLLKPSDTLALTCTVSGGSITSDYWSWIRQPPGRGLDWIGFFYNGGSTKYNPSLKSRVTISADTSKNQLSLKLTSVTAADTGVYYCARHDAKFSGSYYVASWGQGTRVTVSS VL: DIQMTQSPSSLSASVGDRVTISCRASQSISTYLNWYQQQPGKAPKVLIFGATNLQSGVPSRFSGSGSGTDFTLTISSLQPEDFATYYCQQSYNTPLIFGQGTKLEIK | 434 MFI

Look up FACS M2-HK MFI: 3260_D19 (antibody, V domains shown) VH: DMQLVESGGGLVPPGGSLRLSCAASGFSVSDNYINWVRQAPGKGLDWVSVFYSADRTSYADSVKGRFTVSSHDSKNTVYLQMNSLRAEDTAVYYCARVQKSYYGMDVWGQGTTVTVSS VL: GIQMTQSPSSLSASVGDRVTITCRASQSISRYLNWYLQKPGKAPKLLISGASSLQSGVPSRFSGTGSGTEFTLTISSLQPEDFATYYCQQTFSIPLFGQGTKVEIK
846 MFI
